The reported numbers originate from patent US6362369B1.

System: rice leafroller (Cnaphalocrocis medinalis)
EXPERIMENTAL DETAILS: Insecticidal effect on rice leafroller (Test Example 3)
Format: in vivo
STATED CONDITIONS: 500 ppm; rice lamina immersed; third-instar larvae of rice leafroller; four days after inoculation; 25° C., humidity 70%
PARAMETER: Insecticidal effect, Test Example 3

Solved entries:
Cc1cc(C(F)(F)C(F)(F)C(F)(F)C(F)(F)F)ccc1NC(=O)c1c(I)cccc1C(=O)NC(C)C; B (99-90)
Cc1cc(OCc2ccc(Cl)cc2)ccc1NC(=O)c1ccccc1C(=O)NC(C)C; B (99-90)
CC(C)NC(=O)c1cccc(Cl)c1C(=O)Nc1ccc(OC(F)(F)F)cc1Cl; A (100)
Cc1cc(Oc2ncc(C(F)(F)F)cc2Cl)ccc1NC(=O)c1cccc(Br)c1C(=O)NC(C)C; A (100)
COc1ccc(NC(=O)c2cccc(I)c2C(=O)NC(C)C)c(C)c1C; A (100)
CC(C)NC(=O)c1c(I)cccc1C(=O)Nc1ccc(SCC(F)(F)F)cc1; A (100)
CC(C)NC(=O)c1c(Br)cccc1C(=O)Nc1ccc(OC(F)(F)F)cc1; D (79-50)
Cc1ccccc1NC(=O)c1ccc(Cl)cc1C(=O)NC(C)C; B (99-90)

stdin: Look up Insecticidal effect, Test Example 3 for this compound: "Cc1ccc(Cl)cc1NC(=O)c1ccc(Cl)cc1C(=O)NC(C)C"
stdout: A (100)

stdin: Value lookup for Insecticidal effect, Test Example 3; key = "Cc1cc(OCC(F)(F)F)ccc1NC(=O)c1c(I)cccc1C(=O)NC(C)C"
stdout: D (79-50)

stdin: Value lookup for Insecticidal effect, Test Example 3; key = "Cc1c(Cl)cccc1NC(=O)c1c(Br)cccc1C(=O)NC(C)C"
stdout: A (100)

stdin: Fill blank: measured Insecticidal effect, Test Example 3 of the compound "CC(C)NC(=O)c1c(Br)cccc1C(=O)Nc1ccc(C(F)(F)F)cc1" is ____.
stdout: D (79-50)

stdin: Insecticidal effect, Test Example 3 lookup needed for "Cc1c(Cl)cccc1NC(=O)c1cccc(I)c1C(=O)NC(C)C" , thanks.
stdout: A (100)

====

Tested on: rice leafroller (Cnaphalocrocis medinalis)
EXPERIMENTAL DETAILS: Insecticidal effect on rice leafroller (Test Example 3)
Type: in vivo
STATED CONDITIONS: 500 ppm; rice lamina immersed; third-instar larvae of rice leafroller; four days after inoculation; 25° C., humidity 70%
Text: Insecticidal effect on rice leafroller (Cnaphalocrocis medinalis) After air-drying, the lamina was placed in a plastic Petri dish with a diameter of 9 cm whose bottom had been covered with a wetted filter paper. […] Four days after the inoculation, the dead and alive were counted and the insecticidal effect was judged according to the criterion shown in Test Example 1. […]
PARAMETER: Insecticidal effect, Test Example 3

Example cases with answers are listed next.
CC(C)NC(=O)c1ccccc1C(=O)Nc1ccc(C(F)(C(F)(F)F)C(F)(F)F)cc1Cl [compound 46]; B (99-90)
Cc1cc(OC(F)(F)Br)ccc1NC(=O)c1c(Br)cccc1C(=O)NC(C)C [compound 327]; A (100)
Cc1cc(OC(F)F)c(Cl)cc1NC(=O)c1cccc(Cl)c1C(=O)NC(C)C [compound 150]; A (100)
Cc1cc(Br)ccc1NC(=O)c1c(Cl)cccc1C(=O)NC(C)C [compound 216]; A (100)
CCCNC(=O)c1c(C(=O)Nc2cc(Cl)ccc2C)cccc1[N+](=O)[O-] [compound 18]; A (100)

stdin: Endpoint output: Insecticidal effect, Test Example 3 of Cc1cc(F)ccc1NC(=O)c1c(I)cccc1C(=O)NC(C)C [compound 432] . Value?
stdout: A (100)

stdin: Value lookup for Insecticidal effect, Test Example 3; key = CC(C)NC(=O)c1c(Cl)cccc1C(=O)Nc1ccc(F)c(F)c1F [compound 116]
stdout: A (100)

====

System: diamondback moth (Plutella xylostella)
EXPERIMENTAL DETAILS: Insecticidal effect on diamondback moth (Test Example 1)
Type: in vivo
STATED CONDITIONS: diamondback moth; mortality judged by criterion of Test Example 1
PARAMETER: Insecticidal effect, Test Example 1

Before answering, review these 5 worked examples.
CC(C)NC(=O)c1ccccc1C(=O)Nc1ccc([S+]([O-])C(F)(F)Br)cc1 (stereo not shown) [compound 1107]; A (100)
CCN(CC)C(=O)c1cccc([N+](=O)[O-])c1C(=O)Nc1ccc(OC(F)(F)C(F)F)cc1C [compound 1137]; A (100)
CCOCCN(CCOCC)C(=O)c1c(I)cccc1C(=O)Nc1ccc(C(F)(F)C(F)(F)F)cc1C [compound 1046]; A (100)
CCCCc1cc(I)ccc1NC(=O)c1cccc(I)c1C(=O)NC(C)C [compound 966]; A (100)
CCN(C(=O)c1c(I)cccc1C(=O)Nc1ccc(C(F)(F)C(F)(F)F)cc1C)C(C)C [compound 1159]; A (100)

stdin: For the record Cc1cc(OC(F)F)ccc1NC(=O)c1cccc(Cl)c1C(=O)NC(C)(C)C [compound 1019] , what value of Insecticidal effect, Test Example 1 is listed for diamondback moth (Plutella xylostella)?
stdout: A (100)

stdin: Hello, I am looking for reported Insecticidal effect, Test Example 1 with diamondback moth (Plutella xylostella) for Cc1cc(OC(F)F)ccc1NC(=O)c1cccc(I)c1C(=O)NCc1ccccc1 [compound 1430] . Could you help?
stdout: A (100)

stdin: Query Insecticidal effect, Test Example 1 on diamondback moth (Plutella xylostella) for Cc1cc(C(F)(F)C(F)(F)F)ccc1NC(=O)c1cccc(Cl)c1C(=O)NC(C)c1ccc(Cl)cc1 (stereo not shown) [compound 1366]
stdout: A (100)

stdin: Lookup: Insecticidal effect, Test Example 1 / diamondback moth (Plutella xylostella) / Cc1cc(C(F)(F)C(F)(F)F)ccc1NC(=O)c1cccc(Cl)c1C(=O)NCc1ccccc1Cl [compound 1309]
stdout: A (100)

stdin: Requested read-out Insecticidal effect, Test Example 1, target or system diamondback moth (Plutella xylostella), entry Cc1cc(OC(F)(F)F)ccc1NC(=O)c1cccc(OC(F)(F)F)c1C(=O)NC(C)(C)C [compound 1234]
stdout: A (100)

====

Tested on: rice leafroller (Cnaphalocrocis medinalis)
EXPERIMENTAL DETAILS: Insecticidal effect on rice leafroller (Test Example 3)
Assay type: in vivo
STATED CONDITIONS: 500 ppm, rice lamina dip, third-instar larvae, four days after inoculation, 25° C., humidity 70%
PARAMETER: Insecticidal effect on rice leafroller (Test Example 3), judged grade

CC(C)NC(=O)c1c(I)cccc1C(=O)Nc1ccc(C=C(Cl)C(F)(F)F)cc1 [compound 917]; A (100)
Cc1cc(OC(F)(F)Br)ccc1NC(=O)c1cccc(F)c1C(=O)NC(C)C [compound 511]; A (100)
Cc1cc(OC(F)(F)C(Cl)(Cl)Cl)ccc1NC(=O)c1c(F)cccc1C(=O)NC(C)C [compound 552]; B (99-90)
Cc1cc(OC(F)(F)C(F)C(F)(F)F)ccc1NC(=O)c1c(F)cccc1C(=O)NC(C)C (stereo not drawn) [compound 568]; A (100)
Cc1cc(OC(F)(F)C(F)Cl)ccc1NC(=O)c1cccc(F)c1C(=O)NC(C)C (stereo not drawn) [compound 513]; A (100)
COc1cccc(C(=O)Nc2ccc(OC(F)(F)F)cc2)c1C(=O)NC(C)C [compound 767]; A (100)
Cc1cc(OC(F)F)c(Cl)cc1NC(=O)c1cccc(F)c1C(=O)NC(C)C [compound 517]; A (100)
Cc1cc(SC(F)F)ccc1NC(=O)c1cccc([N+](=O)[O-])c1C(=O)NC(C)C [compound 722]; A (100)

stdin: Any idea what Insecticidal effect on rice leafroller (Test Example 3), judged grade was measured for Cc1cc(OC(F)F)ccc1NC(=O)c1cccc(Cl)c1C(=O)NC1CC1 [compound 849] ?
stdout: A (100)

stdin: Insecticidal effect on rice leafroller (Test Example 3), judged grade for CC(C)(C)NC(=O)c1ccccc1C(=O)Nc1ccccc1 [compound 840] ?
stdout: D (79-50)

stdin: Consider the molecule COc1cc(NC(=O)c2c(I)cccc2C(=O)NC(C)C)ccc1OC(F)F [compound 450] and give its measured Insecticidal effect on rice leafroller (Test Example 3), judged grade.
stdout: C (89-80)

stdin: What Insecticidal effect on rice leafroller (Test Example 3), judged grade value was documented for this molecule, COc1cccc(NC(=O)c2cccc([N+](=O)[O-])c2C(=O)NC(C)C)c1C [compound 687] ?
stdout: D (79-50)

stdin: For the molecule shown here, CC(C)NC(=O)c1c(F)cccc1C(=O)Nc1ccc(C(F)(F)C(F)(F)C(F)(F)C(F)(F)F)cc1 [compound 472] , give the reported Insecticidal effect on rice leafroller (Test Example 3), judged grade.
stdout: B (99-90)

stdin: Name the recorded Insecticidal effect on rice leafroller (Test Example 3), judged grade for COc1cc(NC(=O)c2cccc([N+](=O)[O-])c2C(=O)NC(C)C)cc(C(F)(F)F)c1 [compound 691] .
stdout: C (89-80)

stdin: So what's the measured Insecticidal effect on rice leafroller (Test Example 3), judged grade for this one? Cc1cc(Cl)ccc1NC(=O)c1c(F)ccc(F)c1C(=O)NC(C)C [compound 582]
stdout: A (100)

stdin: I'd like to know its Insecticidal effect on rice leafroller (Test Example 3), judged grade. The molecule in question is Cc1cc(Cl)ccc1NC(=O)c1c(F)cccc1C(=O)NC(C)C [compound 545]
stdout: A (100)

stdin: Quick one: Insecticidal effect on rice leafroller (Test Example 3), judged grade of Cc1cc(Cl)ccc1NC(=O)c1ccccc1C(=O)NC(C)(C)C [compound 927] ?
stdout: A (100)

stdin: Reported Insecticidal effect on rice leafroller (Test Example 3), judged grade, molecule Cc1cc(F)ccc1NC(=O)c1cccc([N+](=O)[O-])c1C(=O)NC(C)C [compound 675] : ____
stdout: A (100)

stdin: Field request: Insecticidal effect on rice leafroller (Test Example 3), judged grade | item: Cc1cc(OC(F)(F)F)ccc1NC(=O)c1cccc([N+](=O)[O-])c1C(=O)NC(C)C [compound 710]
stdout: A (100)

stdin: # get_value(readout='Insecticidal effect on rice leafroller (Test Example 3), judged grade', item= Cc1cc(OC(F)(F)C(F)(Br)C(F)(F)F)ccc1NC(=O)c1c(F)cccc1C(=O)NC(C)C (stereo not drawn) [compound 569] )
stdout: A (100)

stdin: Tell me the measured Insecticidal effect on rice leafroller (Test Example 3), judged grade of COc1c(C)ccc(NC(=O)c2cccc([N+](=O)[O-])c2C(=O)NC(C)C)c1C [compound 694] , please.
stdout: A (100)

stdin: Requested read-out: Insecticidal effect on rice leafroller (Test Example 3), judged grade. Entry: CC(C)NC(=O)c1c(I)cccc1C(=O)Nc1ccc(C(F)(F)C(F)(F)F)cc1 [compound 895]
stdout: A (100)

stdin: Entry Cc1cc(C(F)(F)C(F)(F)C(F)(F)C(F)(F)F)ccc1NC(=O)c1cccc([N+](=O)[O-])c1C(=O)NC(C)C [compound 686] : reported Insecticidal effect on rice leafroller (Test Example 3), judged grade = ?
stdout: A (100)

stdin: So what does the record say about Insecticidal effect on rice leafroller (Test Example 3), judged grade for Cc1cc(OCC(F)(F)F)ccc1NC(=O)c1cccc([N+](=O)[O-])c1C(=O)NC(C)C [compound 697] ?
stdout: A (100)

stdin: Endpoint output: Insecticidal effect on rice leafroller (Test Example 3), judged grade of CC(C)NC(=O)c1c(C(=O)Nc2cccc(OC(F)F)c2)cccc1[N+](=O)[O-] [compound 616] . Value?
stdout: D (79-50)
